# Tested on: K4 kissing-loop RNA reporter;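 also: bound reporter read as fluorescence of individual clusters on recovered sequencing chips by microscopy, with normalized cluster intensities fitted with a binding model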
# assay.notes: apparent KD of K4 kissing-loop reporter; higher = weaker reporter binding
# test.settings: Eterna round: R107; input ligand: theophylline 20 uM
recorded.endpoint: apparent KD of K4 kissing-loop reporter (nM)
Give the value in nM but do not write nM after it.

item.sequence: UUUGGUUUCUCGGCCGCCACUCGUUGGUUAUGGGCUUCAGGGAUAUAGUGAUGUUAUGUAUAGAAGAGGACCGGGAGAAGGUUUG [ExTryptoB.Dt]
apparent KD of K4 kissing-loop reporter [nM]: 408
//
item.sequence: UGUUUUUACUGAAGGAGCGGCAAUUGAUACGUAGAUAUAGUGAUGUUAUAUAAGAUAGAGAGCCAGGUAGGUCGCAGAGUUUUUC [ExArgB.Z]
apparent KD of K4 kissing-loop reporter [nM]: 179

Would you kindly look at the next entry?
Value lookup for apparent KD of K4 kissing-loop reporter; key = CUUGAUGGAAACAUCGAGUAGAUUACUGAUACCAGUAUCGAUAGAUACCCUUGGCAGCAGAAUCAGUAAUCACGAGUGAUGUUCG [Ex Theophylline A K4 7]
518

====

# Test system: MS2 coat protein
# assay.notes: apparent KD of MS2 coat protein; designed switch direction (-1 OFF switch, 1 ON switch): -1; higher = weaker reporter binding
# test.settings: input ligand: microRNA oligo, concentration not stated
Note to self: values exactly at 20 nM are 1. So apparent KD of MS2 coat protein at or above 20 nM is 1, below is 0.

Solved cases below.
item.sequence: AGCUGUGGCCGAGGAUAUCUGUUCCAUAAAACCGAAAUAUAAUCGGACAUGAGGAUCACCCAUGUAGAGAAGGCGGUCUCAGCA [Eli eng2 - 099] (Eterna round: R96, puzzle: Exclusion NG 2)
class.assignment: 0

item.sequence: ACAGUACUGCAAGGAUAUCGUUCUAGUUUAUUACGAGAAGGUGCUUUAGUUAUUUCUUUGGGUUGACAUGAGGAUCACCCAUGU [JR_ExcNG1_Sub056] (Eterna round: R96, puzzle: Exclusion NG 1)
class.assignment: 1

item.sequence: GCACGGAUUGUAGGAUAUCUGUGCGAUUAGCUCAGAGAAGGACACAUGAGGAUCACCCAUGUUACCUCAAUUAGCCUUCCGUGC [Eli exng1 - 030] (Eterna round: R96, puzzle: Exclusion NG 1)
class.assignment: 0

Next sequence, please.
Assess whether reported apparent KD of MS2 coat protein for AGCUAGUCAGGAUAUACGAACAUGUCAAAAGACGUGAAGGGACAUGAGGAUCACCCAUGUAGAAGGGACUAGCC [salish99-Ex2-17] (Eterna round: R96, puzzle: Exclusion 2) sits at 20 nM or higher.
1

====

# System: MS2 coat protein
# assay.notes: apparent KD of MS2 coat protein; designed switch direction (-1 OFF switch, 1 ON switch): 1; higher = weaker reporter binding
# test.settings: input ligand: none
// apparent KD of MS2 coat protein lookup, one value per entry
Write the number in nM without appending the unit.

item.sequence: GCGAGCGUACUUGCUACAUGAGGAUCACCCAUGUUCAUUGGACAGGAUAUGGUACCGUUUCGGUACCAGAAGGGUUCAUCAUGU [JL SSNG3 3.73] (Eterna round: R96, puzzle: Same State NG 3)
recorded.endpoint: apparent KD of MS2 coat protein
reading: 585

Form field: reported apparent KD of MS2 coat protein of AGGCUCAGACGAGGAUAUAUGUGAUCACAUGAGGAUCACCCAUGUCUCGAGCUUCGGCUCGAGACAUAGAAGGCGUCUGAGCCA [SSNG2/3-A1] (Eterna round: R96, puzzle: Same State NG 2)
21.4

Which apparent KD of MS2 coat protein is reported for this sequence? AGCUAUUAAUCAGGAUAUGGUCACAUGAGGAUCACCCAUGUAACGAUGAUAUAAUGUGGUCAAAACUAGAAGGGAUUGCUAACA [SameState NG2 #65] (Eterna round: R96, puzzle: Same State NG 2)
290

Which apparent KD of MS2 coat protein value is on record for AAAAUACAUGAGGAUCACCCAUGUGAAAAUAUGGGAGGAUAUACCGAAAAAAAAAAAAAGGUAGAAGGCCCAAAAA [SS! 1 MT 5] (Eterna round: R96, puzzle: Same State 1) ?
34.6

Returns the measured apparent KD of MS2 coat protein for the input sequence. Input: GCCAUCGCAUGAGGAUAUGGCACCGUUUCGGUGCCAGAAGGCAUGUCGAAUGACAUGAGGAUCACCCAUGUAGUAUAGAUGGCA [JL Fiskers NG1ss - 33 mod 10] (Eterna round: R96, puzzle: Same State NG 1)
851

Could you tell me which apparent KD of MS2 coat protein is on file for ACAUGAGAGUGAGGAUAUGGUGUACCUACAUGUGACAUGAGGAUCACCCAUGUGGUAAGUAUGACUCAGAAGGCACAGAUAUGU [Equivalance 77 - Jieux - Same State NG 2] (Eterna round: R96, puzzle: Same State NG 2) ?
103

FYI, the data here is from the supplement of paper PMC9170038.
